experiment: Relative distribution coefficient of epoxybutene into the aqueous phase in the presence of a water-miscible solvent; format: physicochemical; details: one part solvent added to two parts of 2:1 water-epoxybutene mixture, room temperature, aqueous phase by GC; relative to water alone (=1.00)
MEASUREMENT NAME: Relative Distribution

{"columns": ["COMPOUND", "MEASUREMENT NAME", "REPORTED MEASUREMENT"],
 "data": [
  ["CN1CCCC1=O [1-Methyl-2-Pyrrolidinone]", "Relative Distribution", 2.78],
  ["c1ccc2ncccc2c1 [Quinoline]", "Relative Distribution", 1.03],
  ["CCCCOCCO [2-Butoxyethanol]", "Relative Distribution", 1.29],
  ["CN(C)C=O [Dimethylformamide]", "Relative Distribution", 2.44],
  ["COCCOCCO [2-(2-Methoxyethoxy)ethanol]", "Relative Distribution", 1.83],
  ["COCC(C)O (stereo not shown) [Propylene Glycol Monomethyl Ether]", "Relative Distribution", 2.02],
  ["C[S+](C)[O-] [Dimethylsulfoxide]", "Relative Distribution", 1.40]
]}

---

assay: Relative distribution coefficient of epoxybutene into the aqueous phase in the presence of a water-miscible solvent; format: physicochemical; details: one part solvent added to two parts of 2:1 water-epoxybutene mixture, room temperature, aqueous phase by GC; relative to water alone (=1.00)
Reported Relative Distribution values are given for each entry in this list.
MEASUREMENT NAME: Relative Distribution

{"columns": ["COMPOUND", "REPORTED MEASUREMENT"],
 "data": [
  ["CC#N", 1.89],
  ["C=CC(O)CO (centres unmarked)", 1.39],
  ["COCCOCCOCCOC", 1.54],
  ["OCCO", 1.14],
  ["COC(C)COC(C)=O (centres unmarked) [2-Methoxypropyl Acetate]", 1.05],
  ["CC(O)CO (centres unmarked)", 1.90],
  ["CCCOCCO", 1.49],
  ["CCCCOCCOCCO", 4.30]
]}

These data points were gathered from patent US6596882B2.
